# TARGET OF ASSAY: T1, human PD-L1 on CHO-K1 cells overexpressing human PD-L1 (human, UniProt Q9NZQ7 19-290)
# T1 construct: whole, on cells; also called CHO-K1/hPD-L1; CHO-K1-hPD-L1
# T1 sequence (Q9NZQ7 19-290): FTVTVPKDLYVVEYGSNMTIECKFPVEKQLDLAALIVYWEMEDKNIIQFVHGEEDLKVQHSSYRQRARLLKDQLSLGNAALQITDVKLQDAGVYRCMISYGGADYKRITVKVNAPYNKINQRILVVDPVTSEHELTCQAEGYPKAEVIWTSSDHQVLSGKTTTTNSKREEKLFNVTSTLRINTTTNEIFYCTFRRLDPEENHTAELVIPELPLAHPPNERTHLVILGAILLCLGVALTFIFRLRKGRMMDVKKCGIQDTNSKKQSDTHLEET
# EXPERIMENT NOTES: flow cytometry on CHO-K1 cells overexpressing human PD-L1 (CHO-K1/hPD-L1) [continued) F]
READOUT: Maximum MFI (MFI)

INSERT INTO measurements (binder, unit_name, result_number) VALUES
  ('PR006245 (antibody, human IgG1, V domains shown, The HC entry is used) VH: QVQLVESGGGVVQPGMSLRLSCAASGFDFSSYGMYWVRQAPGKGQEWVASIRYTGTEKHYADSVKGRFTISRDNSKNTLYLEMNSLRVEDTAVYYCAKNRAIFGVVPDASDIRGQGTMVTVSS', 'MFI', 405000),
  ('PR006248 (antibody, human IgG1, V domains shown, The HC entry is used) VH: QVQLVESGGGVVQPGMSLRLSCAASGFDFSSYGMYWVRQAPGKGQEWVASIRYTGTEKHYADSVKGRFTISRDNSKNTLYLEMNSLRVEDTAVYYCAKNRALFGVIPDDSDIRGQGTMVTVSS', 'MFI', 404000),
  ('PR002082 (antibody, human IgG1, V domains shown, HCAb; also called PTM variant of PR000960 (N28T, N31S)) VH: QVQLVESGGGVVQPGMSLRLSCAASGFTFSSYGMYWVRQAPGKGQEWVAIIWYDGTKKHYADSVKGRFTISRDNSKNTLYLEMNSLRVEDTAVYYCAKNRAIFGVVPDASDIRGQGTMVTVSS', 'MFI', 430000),
  ('PR006247 (antibody, human IgG1, V domains shown, The HC entry is used) VH: QVQLVESGGGVVQPGMSLRLSCAASGFDFSSYGMYWVRQAPGKGQEWVASIRYTGTEKHYADSVKGRFTISRDNSKNTLYLEMNSLRVEDTAVYYCAKNRALFGVIPDASDIRGQGTMVTVSS', 'MFI', 410000);
